biological target: full-length beta-Catenin (Uniprot ID P35222) (Homo sapiens, UniProt P35222); construct: 10 nM full-length beta-Catenin (Uniprot ID P35222); assay: Fluorescence polarization IC50 (beta-catenin / 5FAM-TCF4 10-53 competition); type: binding; conditions: fluorescence polarization; read-out: beta-Catenin FP IC50
Sequence (P35222 whole entry): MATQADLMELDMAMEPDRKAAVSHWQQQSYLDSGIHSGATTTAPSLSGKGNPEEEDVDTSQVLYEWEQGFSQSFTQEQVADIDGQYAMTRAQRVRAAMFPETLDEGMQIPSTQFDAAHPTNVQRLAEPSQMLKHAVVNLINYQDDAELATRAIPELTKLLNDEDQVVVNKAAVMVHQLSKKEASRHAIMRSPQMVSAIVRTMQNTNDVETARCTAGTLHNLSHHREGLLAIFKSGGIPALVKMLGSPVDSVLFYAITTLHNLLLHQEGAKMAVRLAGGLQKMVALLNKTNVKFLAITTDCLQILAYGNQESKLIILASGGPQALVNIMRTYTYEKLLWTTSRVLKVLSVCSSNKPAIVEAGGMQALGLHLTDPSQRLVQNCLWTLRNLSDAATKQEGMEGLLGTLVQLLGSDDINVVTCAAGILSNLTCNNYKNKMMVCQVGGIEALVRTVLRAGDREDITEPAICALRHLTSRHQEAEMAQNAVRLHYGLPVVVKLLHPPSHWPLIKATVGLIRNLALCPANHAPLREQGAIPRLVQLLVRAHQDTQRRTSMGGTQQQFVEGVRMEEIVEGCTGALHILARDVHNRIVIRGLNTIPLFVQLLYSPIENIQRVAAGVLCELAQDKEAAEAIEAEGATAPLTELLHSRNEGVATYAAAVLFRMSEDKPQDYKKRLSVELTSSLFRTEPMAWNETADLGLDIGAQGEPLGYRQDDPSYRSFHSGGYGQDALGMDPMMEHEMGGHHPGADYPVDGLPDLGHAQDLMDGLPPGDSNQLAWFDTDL
Starred links: 1 amine or outer side, 2 acyl side, 3 side chain; linkers in the order of their positions; H or OH if unused. Positions of bridges follow the written chain, without caps; N, C: chain ends. Non-standard residues stand in square brackets, D forms with d. Residues, ends and D or L forms follow the SMILES beside them. X3 = O=C([C@]1(CC=[*:3])CCCN1[*:1])[*:2]; Bta = N[C@@H](Cc1csc2ccccc12)C(=O)O; tBuAla = CC(C)(C)C[C@H](N)C(=O)O; 3Thi = N[C@@H](Cc1ccsc1)C(=O)O; R5 = C=CCCC[C@@](C)(N)C(=O)O; S5 = C=CCCC[C@](C)(N)C(=O)O; Aib = CC(C)(N)C(=O)O
result type: pIC50
# pIC50 = -log10(concentration in molar units)

Solved entries (count: 4):
Quick check: pIC50 of CCNC(=O)CC[C@H](NC(=O)[C@H](Cc1csc2ccccc12)NC(=O)[C@H](Cc1ccccc1C(F)(F)F)NC(=O)[C@]12CCN(C1)C(=O)OCCCC=CCCCC1(CCCC=CC[C@]3(CCCN3C(C)=O)C(=O)N[C@@H](CC(=O)O)C(=O)N[C@@H](CC(C)(C)C)C(=O)N1)C(=O)N[C@@H](CC(=O)O)C(=O)N[C@@H](Cc1cccc(C(=O)O)c1)C(=O)N[C@@H](C)C(=O)N[C@@H](C)C(=O)N[C@@H](Cc1ccccc1)C(=O)N[C@@H](CC)C(=O)N2)C(=O)N[C@@H](C)C(N)=O (some centres unmarked) ? 7.89

Quick check: pIC50 of CC(=O)N1CCC[C@]12CC=CCCCC1(CCCC=CCCCOC(=O)N3CC[C@@](C(=O)N[C@@H](Cc4ccsc4)C(=O)N[C@@H](Cc4csc5ccccc45)C(=O)N[C@@H](CCC(N)=O)C(N)=O)(C3)NC(=O)[C@H](CC(C)C)NC(=O)[C@H](Cc3ccccc3)NC(=O)[C@H](C)NC(=O)[C@H](C)NC(=O)[C@H](CN(CC(=O)O)C(=O)CCN(C)C)NC(=O)[C@H](CC(=O)O)NC1=O)NC(=O)[C@H](CC(C)(C)C)NC(=O)[C@H](CC(=O)O)NC2=O (some centres unmarked) ? 7.66

Quick check: pIC50 of CC(=O)N1CCC[C@]12CC=CCCCC1(CCCC=CCCCOC(=O)N3CC[C@@](C(=O)N[C@@H](Cc4ccsc4)C(=O)N[C@@H](Cc4csc5ccccc45)C(=O)N[C@@H](CCC(=O)N4CC[C@@H](N(C)C)C4)C(N)=O)(C3)NC(=O)[C@H](CC(C)C)NC(=O)[C@H](Cc3ccccc3)NC(=O)[C@H](C)NC(=O)[C@H](C)NC(=O)[C@H](CN(CC(=O)O)CC(F)(F)F)NC(=O)[C@H](CC(=O)O)NC1=O)NC(=O)[C@H](CC(C)(C)C)NC(=O)[C@H](CC(=O)O)NC2=O (some centres unmarked) [I-1804] ? 8.10

Quick check: pIC50 of CC(=O)N1CCC[C@]12CC=CCCCC1(CCCC=CCCCOC(=O)N3CC[C@@](C(=O)N[C@@H](Cc4ccccc4)C(=O)N[C@@H](Cc4csc5ccccc45)C(=O)N[C@@H](CCC(N)=O)C(N)=O)(C3)NC(=O)[C@H](CC(C)C)NC(=O)[C@H](Cc3ccccc3)NC(=O)[C@H](C)NC(=O)[C@H](C)NC(=O)[C@H](CC(=O)O)NC(=O)[C@H](CC(=O)O)NC1=O)NC(=O)[C@H](CC(C)C)NC(=O)[C@H](CC(=O)O)NC2=O (some centres unmarked) ? 8.05

Would you kindly look at the next entry?
Quick check: pIC50 of CC(=O)N1CCC[C@]12CC=CCCC[C@@](C)(C(=O)N[C@@H](CC(=O)O)C(=O)N[C@@H](CC(=O)O)C(=O)NC(C)(C)C(=O)N[C@@H](C)C(=O)N[C@@H](Cc1ccccc1)C(=O)N[C@]1(C)CCCC=CCCC[C@@](C)(C(=O)N[C@@H](C)C(N)=O)NC(=O)[C@H](Cc3csc4ccccc34)NC(=O)[C@H](Cc3ccsc3)NC(=O)[C@H](C)NC1=O)NC(=O)[C@H](CC(C)(C)C)NC(=O)[C@H](CC(=O)O)NC2=O [I-1780] (Ac-[X3]D[tBuAla][S5]DD[Aib]AF[R5]A[3Thi][Bta][S5]A-NH2; staple 1-4, 10-14 (inferred)) ? 5.38
